Sourced from PubChem BioAssay (NCI)

- System: OVCAR-5 ovarian
- METHOD NOTES: NCI tumour cell line growth inhibition, 48 h
ASSAY METRIC: TGI

Below, each entry is followed by its recorded TGI result.
> print(dat)
                                   compound  assay.metric    result
1  O=[N+]([O-])c1nccn1CC(O)c1ccccc1 (stereo not given)           TGI  > 100 µM
2  Cc1cc(N(CCC#N)CCC#N)ccc1/C(N=Nc1ccc([N+](=O)[O-])cc1)=N\NC(=O)c1cc(Cl)ccc1O           TGI  > 100 µM
3  COc1cc(C2C=C(c3ccccc3)Oc3cc4c(cc32)OCO4)cc(OC)c1OC (stereo not given)           TGI  > 100 µM
4  Cc1cc2c(F)c(Oc3ncnc(Nc4ccc(N5C[C@@H](C)N[C@@H](C)C5)cc4)c3C#N)cc(F)c2[nH]1           TGI   8.68 µM

Field: next compound
Task item: Please give measured TGI of the following entry: COC(=O)C1=C(C)NC(=O)N2[C@@H](CCOCc3ccccc3)CC[C@@H]12
Reply: > 50 µM
